Test: Compound concentrations in organs and plasma after three consecutive daily s.c. treatments (Figure 6B, S7)
Format: in vivo, mice
Settings: mouse, liver, sc; after 52 h; repeated daily s.c. treatment; read-out: concentration in liver
concentration at 52 h for assorted molecules
Output spec: scalar in nM, unitless text.

// known answers, use as guide
{"molecule": "CCCCc1nc2c(N)nc3ccccc3c2n1CCC1CCNCC1 [A1]", "result.unit": "nM", "concentration at 52 h": 94}
{"molecule": "CCCCc1nc2c(N)nc3ccccc3c2n1CCC1CCN(C(=O)CN(C)CC(=O)N(C)C2CC(C)OC(OC3C(C)C(OC4CC(C)(OC)C(O)C(C)O4)C(C)C(=O)OC(CC)C(C)(O)C(O)C(C)N(C)CC(C)CC3(C)O)C2O)CC1 (stereo not drawn) [A1-mac]", "result.unit": "nM", "concentration at 52 h": 6350}

Switching to the query record.
Please list concentration at 52 h recorded for the molecule CC(C)Cn1cnc2c(N)nc3ccccc3c21 [IMQ, Imiquimod] 645

* * *

concentration at 1440 min for assorted compounds
Assay: Cassette bioavailability i.v., i.p., p.o. (blood and organ concentrations by HPLC-MS/MS)
Assay type: in vivo, C57BL/6 mice
Settings: female, C57BL/6, mouse, kidney, ip, i.p. 2 mg/kg, organs sampled 1440 min after administration, read-out: concentration in kidney

{"compound": "CCCCc1nc2c(N)nc3ccccc3c2n1CCC1CCN(C(=O)CN(C)CC(=O)N(C)C2CC(C)OC(OC3C(C)C(OC4CC(C)(OC)C(O)C(C)O4)C(C)C(=O)OC(CC)C(C)(O)C(O)C(C)N(C)CC(C)CC3(C)O)C2O)CC1 (centres unmarked)", "concentration at 1440 min": "586 nM"}

Please list concentration at 1440 min recorded for the compound `CCCCc1nc2c(N)nc3ccccc3c2n1CC1CCN(C(=O)CN(C)CC(=O)N(C)[C@H]2C[C@@H](C)O[C@@H](O[C@@H]3[C@@H](C)[C@H](O[C@H]4C[C@@](C)(OC)[C@@H](O)[C@H](C)O4)[C@@H](C)C(=O)O[C@H](CC)[C@@](C)(O)[C@H](O)[C@@H](C)N(C)C[C@H](C)C[C@@]3(C)O)[C@@H]2O)CC1` 449 nM

* * *

Target: human TLR8 (Homo sapiens, UniProt Q9NR97)
Construct: host or cells: HEK blue hTLR8 reporter cells
Sequence (Q9NR97 27-1041): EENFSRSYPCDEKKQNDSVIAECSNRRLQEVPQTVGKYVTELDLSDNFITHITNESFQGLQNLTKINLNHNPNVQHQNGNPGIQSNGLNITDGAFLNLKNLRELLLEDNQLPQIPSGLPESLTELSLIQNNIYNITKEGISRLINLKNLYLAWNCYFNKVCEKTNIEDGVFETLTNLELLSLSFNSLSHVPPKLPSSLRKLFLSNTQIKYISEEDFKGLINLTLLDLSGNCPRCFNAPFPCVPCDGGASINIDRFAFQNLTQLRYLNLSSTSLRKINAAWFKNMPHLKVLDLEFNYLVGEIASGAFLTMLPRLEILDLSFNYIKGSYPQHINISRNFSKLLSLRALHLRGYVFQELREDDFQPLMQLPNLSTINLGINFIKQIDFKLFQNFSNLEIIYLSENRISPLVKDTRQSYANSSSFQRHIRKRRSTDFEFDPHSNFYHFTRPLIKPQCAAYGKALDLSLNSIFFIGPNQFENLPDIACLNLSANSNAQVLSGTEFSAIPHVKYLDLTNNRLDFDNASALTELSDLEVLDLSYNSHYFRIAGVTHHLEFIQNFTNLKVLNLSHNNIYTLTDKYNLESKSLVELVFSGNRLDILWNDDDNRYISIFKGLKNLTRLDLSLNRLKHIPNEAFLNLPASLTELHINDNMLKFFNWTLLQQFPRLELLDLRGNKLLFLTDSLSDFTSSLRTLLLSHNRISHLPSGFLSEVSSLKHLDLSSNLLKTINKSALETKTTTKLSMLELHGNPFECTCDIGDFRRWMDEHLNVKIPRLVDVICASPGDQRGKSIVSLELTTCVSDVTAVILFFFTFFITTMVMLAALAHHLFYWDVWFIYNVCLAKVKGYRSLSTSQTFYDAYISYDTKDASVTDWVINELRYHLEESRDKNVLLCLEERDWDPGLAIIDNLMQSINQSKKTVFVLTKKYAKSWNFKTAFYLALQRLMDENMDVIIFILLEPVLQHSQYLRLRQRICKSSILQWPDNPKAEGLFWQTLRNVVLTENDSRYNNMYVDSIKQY
Test: HEK-Blue hTLR8 SEAP reporter assay
Type: cell-based
Conditions: average maximal SEAP secretion relative to maximum secretion observed in the assay
assay.metric: TLR8 activity rel. to assay max

// known answers, use as guide
{"compound": "CCCCc1nc2c(N)nc3ccccc3c2n1CC1CCN(C(=O)CN(C)CC(=O)N(C)[C@H]2C[C@@H](C)O[C@@H](O[C@@H]3[C@@H](C)[C@H](O[C@H]4C[C@@](C)(OC)[C@@H](O)[C@H](C)O4)[C@@H](C)C(=O)O[C@H](CC)[C@@](C)(O)[C@H](O)[C@@H](C)N(C)C[C@H](C)C[C@@]3(C)O)[C@@H]2O)CC1", "assay.metric": "TLR8 activity rel. to assay max", "value": "4% ± 1%"}
{"compound": "CCCCc1nc2c(N)nc3ccccc3c2n1CCOCCOCCN", "assay.metric": "TLR8 activity rel. to assay max", "value": "36% ± 4%"}
{"compound": "CCCCc1nc2c(N)nc3ccccc3c2n1CCC1CCN(C(=O)CN(C)CC(=O)N(C)C2CC(C)OC(OC3C(C)C(OC4CC(C)(OC)C(O)C(C)O4)C(C)C(=O)OC(CC)C(C)(O)C(O)C(C)N(C)CC(C)CC3(C)O)C2O)CC1 (stereo not drawn)", "assay.metric": "TLR8 activity rel. to assay max", "value": "5% ± 3%"}

Please list TLR8 activity rel. to assay max recorded for the compound `CCCCc1nc2c(N)nc3ccccc3c2n1CC1CCNCC1` 57% ± 9%

Please list TLR8 activity rel. to assay max recorded for the compound `CCCCc1nc2c(N)nc3ccccc3c2n1CCOCCOCCO` 18% ± 8%

Please list TLR8 activity rel. to assay max recorded for the compound `CCCCc1nc2c(N)nc3ccccc3c2n1CCC1CCNCC1` 11% ± 8%
